Cited source: PubChem BioAssay (NCI)

The following compounds are listed with their measured growth inhibition values.
# assay.details: NCI Yeast Anticancer Drug Screen. Data for the wt2 strain (AID 169);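 note: 0% = growth of vehicle-treated yeast cultures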
# assay.context: S. cerevisiae wt2 strain growth inhibition; at 33.0 µM; stronger effect = higher value
This is part of a sample that, as a whole, favours compounds with a hit. Of some 79,000 tested, about 15% had one in any assay.
# number only, unit % dropped from output

COc1cc2c(cc1O)[C@H](C)C(c1ccccc1OC)O2 (stereo partly specified) :: -4

Here is the next item to consider.
Look up and state reported growth inhibition for COc1cc(NCCCCNCC(C)(C)C)c2ncccc2c1 5

###

# assay.details: NCI Yeast Anticancer Drug Screen. Data for the rad18 strain (AID 177)
# assay.context: S. cerevisiae rad18 mutant growth inhibition; at 33.0 µM
This is part of a sample that, as a whole, favours compounds with a hit. Of some 79,000 tested, about 15% had one in any assay. The source made the active and inactive calls. Rule as the data show it: active = growth inhibition above about 70%; inactive = the rest.
Respond only with the outcome that fits, drawn from Yes (active), No (inactive)

// below: answered molecules
CC(C)[Si]1(C(C)C)OCC2OC(n3cnc4c(N)ncnc43)C(N)C2O[Si](C(C)C)(C(C)C)O1 (stereo unspecified) :: Yes
Nc1ccc(N=Nc2ccc(-c3ccc(O)cc3)cc2)c2ccc(S(=O)(=O)O)cc12 :: No
CCCCCCCN(CCCCCCC)CC(=O)c1ccc2cc(Cl)c3ccccc3c2c1 :: Yes
O=C(Nc1ccc(Cl)cc1)c1cc2cc(N=Nc3ccccc3Cl)ccc2oc1=O :: Yes
CCN(CC)CCNc1ccc2nc(C)n3c4ccc(O)cc4c(=O)c1c23 :: No

Hello, I am checking results. What call was entered for COc1cc(NCCCCNCC(C)(C)C)c2ncccc2c1 ? No

###

# assay.details: NCI Yeast Anticancer Drug Screen. Data for the rad14 strain (AID 159);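 note: 0% = growth of vehicle-treated control cultures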
# assay.context: S. cerevisiae rad14 strain growth inhibition; at 11.0 µM
The panel holds about 79,000 compounds, 15% with a hit somewhere; the sample as a whole holds those more often. Calls of active or inactive are those of the source. Rule as the data show it: active = growth inhibition above about 70%; inactive = the rest.
Respond only with the outcome that fits, drawn from 1 (yes) = active, 0 (no) = inactive

// below: answered compounds
CC1(C)CC(=O)C(C=NC(=S)C(N)=S)=C(O)C1 :: 0 (no)
O=C(CCSC1=NCCCN1)c1ccc(F)cc1 :: 0 (no)
COc1cc2c(cc1OC)[C@@H](Nc1ccc(C#N)cc1)C1COC(=O)[C@@H]1C2c1cc(OC)c(O)c(OC)c1 (some centres not stated) :: 0 (no)
COC(=N)c1ccc(O)c(C)c1 :: 0 (no)
CC(=O)O[C@H]1CC[C@@]2(C)C(=CC[C@@H]3C2CC[C@]2(C)C(=O)NC(=O)CC32)C1 (some centres not stated) :: 0 (no)

Hello, I am checking results. What call was entered for CCCCCCCC/C=C\CCCCCCCCN ? 0 (no)

Hello, I am checking results. What call was entered for CC(=O)CCC1=C(C)C(=O)C(=O)C(C)=C1O ? 0 (no)

Hello, I am checking results. What call was entered for COc1cc(C(=O)C=O)cc(OC)c1OC ? 0 (no)

###

# assay.details: NCI Yeast Anticancer Drug Screen. Data for the sgs1 strain (AID 173);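 note: 0% = growth of vehicle-only control cultures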
# assay.context: S. cerevisiae sgs1 mutant, at 11.0 µM
This is part of a sample that, as a whole, favours compounds with a hit. Of some 79,000 tested, about 15% had one in any assay. Calls of active or inactive are those of the source. No stated cut-off is given here; in the data, active means growth inhibition above about 70%; inactive means the rest.
Respond only with the outcome that fits, drawn from 1 (yes) for active, 0 (no) for inactive

// below: answered molecules
O=C1Oc2ccccc2C(=O)/C1=C/N1C(=O)N/C(=C\c2ccccc2Br)C1=O :: 0 (no)
O=C1C2=C(c3ccccc31)C(c1ccccc1)N1C(=O)CSC1=N2 (configuration not stated) :: 0 (no)
CC(C)=CCC/C(C)=C/CN1C(=O)C=CC1=O :: 1 (yes)
CCOP(=O)(OCC)/C(C#N)=C/c1ccc(-c2ccc(F)cc2F)o1 :: 0 (no)
NC(=O)NC1C(c2ccccc2)=C1c1ccccc1 :: 0 (no)

Hello, I am checking results. What call was entered for COc1cc(C(=O)C=O)cc(OC)c1OC ? 0 (no)

Hello, I am checking results. What call was entered for CN(C)/C(=N/C(=S)Nc1ccccc1)SCc1ccccc1 ? 0 (no)

Hello, I am checking results. What call was entered for CC(C)OP(=O)(OC(C)C)/C(Cl)=N/Nc1ccc([N+](=O)[O-])cc1 ? 1 (yes)

Hello, I am checking results. What call was entered for COc1ccc2nc3cccc([N+](=O)[O-])c3c(NCCNCCN(C)C)c2c1 ? 0 (no)

Hello, I am checking results. What call was entered for NC(CS)C(=O)NCCNc1ccc(NCCNC(=O)C(N)CS)c2c1C(=O)c1c(O)ccc(O)c1C2=O (configuration not stated) ? 0 (no)

Hello, I am checking results. What call was entered for CC(C)OP(=O)(OC(C)C)C(=NCCO)NNc1ccc([N+](=O)[O-])cc1 ? 1 (yes)

Hello, I am checking results. What call was entered for O=C(NCCCCN(CCCNC(=O)C(F)(F)F)Cc1ccccc1)C(F)(F)F ? 0 (no)

###

# assay.details: NCI Yeast Anticancer Drug Screen. Data for the mgt1 strain (AID 153)
# assay.context: S. cerevisiae mgt1 mutant growth inhibition; at 1.2 µM; stronger effect = higher value
Compounds without any hit were thinned out: in the full panel of roughly 79,000, 15% have a hit.
The following compounds are listed with their measured growth inhibition values.
# number only, unit % dropped from output

Reference set, count: 5
C=CC(C)(C)N1C(=O)C(C(C)=O)=C(O)C1Cc1c[nH]c2ccccc12 (stereo unspecified) :: -2
CC(C(=O)N1C(=O)N(C(=O)C(C)C(O)c2ccccc2)C2CCCCC21)C(O)c1ccccc1 (stereo unspecified) :: -4
O=C(C(Cl)=C(N1CCCCC1)N1CCCCC1)C(Cl)Cl :: -3
CCOP(=O)(OCC)/C(C#N)=C\c1cccc2ccccc12 :: -6
O=C1NC(c2cccc(OCc3ccccc3)c2)Nc2ccccc21 (stereo unspecified) :: -7

Here is the next item to consider.
Look up and state reported growth inhibition for CCOC(=O)/C(=C\c1cccc(C)c1)C(C)=O -2

###

# assay.details: NCI Yeast Anticancer Drug Screen. Data for the mlh1 strain (AID 171);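 note: 0% = growth of vehicle-treated control cultures of the same strain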
# assay.context: S. cerevisiae mlh1 strain growth inhibition; at 11.0 µM
About 79,000 compounds went through this panel and 15% of them were active in at least one assay; those are over-represented in the sample as a whole. Activity calls are given as the source filed them. No stated cut-off is given here; in the data, active means growth inhibition above about 70%; inactive means the rest.
Respond only with the outcome that fits, drawn from 1.0 (active), 0.0 (inactive)

COC(=O)C(Cc1c[nH]c2ccccc12)N1CN(C)c2ccccc2C1=O (stereo not given) :: 0.0
CCN(CC)CC(=O)c1ccc2cc(Cl)c3ccccc3c2c1 :: 1.0
O=C(NC(N1CCN(c2cc3c(cc2F)c(=O)c(C(=O)O)cn3C2CC2)CC1)(C(F)(F)F)C(F)(F)F)c1ccccc1 :: 0.0
O=C(C(Cl)=C(N1CCCCC1)N1CCCCC1)C(Cl)Cl :: 0.0
COc1cc2c(cc1OC)[C@@H](Nc1ccc(C#N)cc1)C1COC(=O)[C@@H]1C2c1cc(OC)c(O)c(OC)c1 (stereo not given in full) :: 0.0

Hello, I am checking results. What call was entered for CC1(C)CC(=O)C(C(=O)Nc2cccs2)=C(O)C1 ? 0.0

Hello, I am checking results. What call was entered for O=C(NO)c1coc2ccccc2c1=O ? 0.0

Hello, I am checking results. What call was entered for CCOc1ccc(N)c(S)c1 ? 0.0

Hello, I am checking results. What call was entered for CCN(CC)CCNc1ccc2nc(C)n3c4ccc(OC)cc4c(=O)c1c23 ? 0.0

Hello, I am checking results. What call was entered for O=C(O)C1CCCCC1c1c2ccc(=O)cc-2oc2cc(O)ccc12 (stereo not given) ? 0.0

Hello, I am checking results. What call was entered for CCCCOc1ccc2nc(C)cc(N=[N+]=[N-])c2c1 ? 0.0

Hello, I am checking results. What call was entered for COc1cc(C2C3=C(COC3=O)Oc3cc4c(cc32)OCO4)cc(OC)c1O (stereo not given) ? 0.0

###

# assay.details: NCI Yeast Anticancer Drug Screen. Data for the rad52 strain (AID 147);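 note: 0% = growth of vehicle-treated control cultures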
# assay.context: S. cerevisiae rad52 mutant growth inhibition; at 11.0 µM; stronger effect = higher value
The panel holds about 79,000 compounds, 15% with a hit somewhere; the sample as a whole holds those more often.
readout.label: growth inhibition (%)
# number only, unit % dropped from output

Reference set, count: 2
CCC(/C=C/c1ccccc1)=N\Nc1ccc(Cl)cc1 :: -1
Nc1ccc(S(=O)(=O)Nc2nc3c(c(=O)[nH]2)CCCC3)cc1 :: 87

Look up and state reported growth inhibition for O=S(=O)(c1ccccc1)N1CN2CN(C1)CN(S(=O)(=O)c1ccccc1)C2 -15

Look up and state reported growth inhibition for O=S(=O)(NC1CCCC(c2ccccc2)C1)c1ccccc1 (centres undefined) 3

Look up and state reported growth inhibition for O=[N+]([O-])/C=C/c1cc2ccc3ccccc3c2[nH]1 83
